The reader will find reported Fold depletion in AML values listed item by item below.
Test system: tet-on competent MLL/AF9+Nras AML
assay.summary: Pooled negative selection RNAi screening (deep sequencing)
Format: cell-based, mouse
condition.summary: deep sequencing reads, On Dox compared to T0
experimental.endpoint: Fold depletion in AML (Fold)

1) Mgst1.549: shRNA, SEQ ID NO: 142 (nucleic acid) TGCTGTTGACAGTGAGCGCAAGGAGCAGACTGTACTTGTATAGTGAAGCCACAGATGTATACAAGTACAGTCTGCTCCTTATGCCTACTGCCTCGGA : 9.14
2) Rpa3.561: shRNA, SEQ ID NO: 176 (also SEQ ID NO: 61) (nucleic acid) TGCTGTTGACAGTGAGCGCAAAAGTGATACTTCAATATATTAGTGAAGCCACAGATGTAATATATTGAAGTATCACTTTTATGCCTACTGCCTCGGA : 8.81
3) Arf3.1357: shRNA, SEQ ID NO: 91 (nucleic acid) TGCTGTTGACAGTGAGCGACCCTTCTGTGTTGGTGAGATATAGTGAAGCCACAGATGTATATCTCACCAACACAGAAGGGCTGCCTACTGCCTCGGA : 94.96
4) Gart.2470: shRNA, SEQ ID NO: 126 (nucleic acid) TGCTGTTGACAGTGAGCGCAAGAATCTGATTGAAACCATATAGTGAAGCCACAGATGTATATGGTTTCAATCAGATTCTTATGCCTACTGCCTCGGA : 146.15
